Where do these numbers come from? They come from the supplement of paper PMC9170038.

- System: MS2 coat protein
- Test Description: apparent KD of MS2 coat protein; designed switch direction (-1 OFF switch, 1 ON switch): 1; higher = weaker reporter binding
- Measurement Conditions: input ligand: FMN 200 uM
Listed here are sequences together with their documented apparent KD of MS2 coat protein.
Write the number in nM without appending the unit.

Please review the entries below; each comes with its answer.
AACGGUGCUUGAAAUAGUCACAUGAGGAUCACCCAUGUUAGGCAGGAUAUGUGUCUAAGACGACCGCAGAAGGGCUCAAGCGAU [Eternabot solution 41] (Eterna round: R96, puzzle: Same State NG 3)	49.5
AUAGUUGCCGAAGGAUAUGAUGAGGAUCACCCAUCAGAAGGUCGGCUAUUGGGUGGACAUGAGGAUCACCCGUGUUCUUUGGUC (Eterna round: R96, puzzle: Same State NG 1)	30.6
GGUACAUGAGGAUCACCCAUGUCAAAGGCACCGUGCAGACUGGAGGAUAUCACAGCAGAAAGCUGUGAGAAGGCCGUGUAAGCG [Eternabot solution 17] (Eterna round: R96, puzzle: Same State NG 3)	17.4

Would you kindly look at the next entry?
Task: May I ask what apparent KD of MS2 coat protein has been recorded for UAUGACUUACAAGGAUAUUAAUGACAUGAGGAUCACCCAUGUGGCUGUGUGUGUUAGAUAAGCUUUAAGAAGGUGUGCGUGUCU [JR_SSNG2_Sub096] (Eterna round: R96, puzzle: Same State NG 2) ?
Result: 361

----------
- System: MS2 coat protein
- Test Description: apparent KD of MS2 coat protein; designed switch direction (-1 OFF switch, 1 ON switch): -1; higher = weaker reporter binding
- Measurement Conditions: input ligand: microRNA oligo, concentration not stated
Readout Label: apparent KD of MS2 coat protein
Hey, just the number and the unit after it is fine.

CACCGUUACAGAGGAUAUGACACAUGAGGAUCACCCAUGUAAUAAAUGAGAAUUUCGAAUGUACCUCAGAAGGCUGGAACCGGC [Ostricism 78 - Jieux - Exclusion NG 2] (Eterna round: R96, puzzle: Exclusion NG 2)	31.5 nM

Task: May I ask what apparent KD of MS2 coat protein has been recorded for ACGCAUUGCCUUUGGUAGUGCGUAACAUGAGGAUCACCCAUGUAGGAUAUGGUAGGCUUUGCUUACCAGAAGGACAUAAUAAAU [Mat - Exclusion NG 3 - Mod of JL - D2] (Eterna round: R96, puzzle: Exclusion NG 3) ?
Result: 25.1 nM

Task: May I ask what apparent KD of MS2 coat protein has been recorded for GUCAGCUCGUGAGGAUAUACAUGAGGAUCACCCAUGUGAUCAAUAGCAGCUUCGGCUGCAUUAAUGUAGAAGGCACGAGCUGAC [ENG2/5-A1] (Eterna round: R96, puzzle: Exclusion NG 2) ?
Result: 22.2 nM

Task: May I ask what apparent KD of MS2 coat protein has been recorded for AGAAAAGACCUAGGAUAUACCCAGUGGGUAGAGGGUCAUAAUAAUAAAACAUGAGGAUCACCCAUGUAGAAGGAGGGAAAGAAG [Biriusdibe] (Eterna round: R96, puzzle: Exclusion NG 2) ?
Result: 47.1 nM

Task: May I ask what apparent KD of MS2 coat protein has been recorded for ACAGCAUAGUUAGGAUAUUGCCGACACUGUGUGUUCCUACACAUGAGGAUCACCCAUGUGAAGCGCGAGAAGGAACUAACUGAA [Eternabot solution 8] (Eterna round: R96, puzzle: Exclusion NG 2) ?
Result: 179 nM
